- TARGET UNDER TEST: human 5-HT2C receptor (Homo sapiens, UniProt P28335, I156V/I160V/N158S)
- Sequence (P28335 33-458 I156V/N158S/I160V limits assumed): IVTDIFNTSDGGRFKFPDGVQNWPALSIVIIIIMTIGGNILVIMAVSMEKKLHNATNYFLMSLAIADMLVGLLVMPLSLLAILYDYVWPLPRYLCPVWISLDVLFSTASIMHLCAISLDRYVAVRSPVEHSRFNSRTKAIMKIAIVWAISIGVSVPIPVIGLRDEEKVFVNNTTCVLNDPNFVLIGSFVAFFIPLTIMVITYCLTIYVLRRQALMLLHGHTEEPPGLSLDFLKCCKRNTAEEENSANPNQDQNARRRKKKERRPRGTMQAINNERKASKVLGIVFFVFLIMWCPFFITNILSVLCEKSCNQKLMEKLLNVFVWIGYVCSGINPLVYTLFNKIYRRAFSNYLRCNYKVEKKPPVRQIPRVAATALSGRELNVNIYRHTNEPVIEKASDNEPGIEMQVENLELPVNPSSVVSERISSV
- MEASUREMENT NOTES: cell-based
For each entry below, report its pEC50 value.
Expect pEC50 as a plain number equal to -log10 of the molar concentration.

// field: pEC50; key: COc1cccc(F)c1OCC1CN(c2c3c(nc4ccnn24)CCNCC3)C1 ; value = 7.33

// Cc1cnn2c(N3CC(C(=O)N4CCc5ccccc54)C3)c3c(nc12)CCNCC3 : pEC50 value = 7.51

pEC50 for O=C(C1CN(c2c3c(nc4ccnn24)CCNCC3)C1)N1CCC(Nc2ccccc2)CC1 is 8.22

response.value for c1ccc(COC2CN(c3c4c(nc5ccnn35)CCNCC4)C2)nc1 (field: pEC50) = 6.74

Note to self: pEC50 recorded for O=C(CC1CN(c2c3c(nc4ccnn24)CCNCC3)C1)N1CCc2cc(F)ccc21 was 7.70

The reported value for O=C(NCC1CC1)C1CN(c2c3c(nc4ccnn24)CCNCC3)C1 in terms of pEC50 is 6.86

For reference, reported pEC50 for CC1CN(C(=O)C2CN(c3c4c(nc5c(Br)cnn35)CCNCC4)C2)CC(C)O1 (centres unmarked) stands at 7.19

Measured pEC50 of CC1CCCN1C(=O)C1CN(c2c3c(nc4ccnn24)CCNCC3)C1 (centres unmarked) : 6.60

* * *

Hi there, I'd appreciate the recorded EC50 for every entry that follows.
- TARGET UNDER TEST: human 5-HT2C receptor (Homo sapiens, UniProt P28335, I156V/I160V/N158S)
- MEASUREMENT NOTES: cell-based
Dear colleague, please return just the value in nM, with no unit written.

The measured EC50 associated with FC(F)(F)c1cccnc1OC1CN(c2c3c(nc4ccnn24)CCNCC3)C1 reads 959

# EC50 (molecule: OC[C@H]1CCN1c1c2c(nc3ccnn13)CCNCC2 ) is 105

The molecule listed as Fc1ccccc1OC1CN(c2c3c(nc4ccnn24)CCNCC3)C1 shows EC50 equal to 5

EC50 reading for CN(Cc1ccc(-c2ccccc2)cc1)C(=O)C1CN(c2c3c(nc4ccnn24)CCNCC3)C1 : 154

# EC50 (molecule: CN(Cc1cccc(Br)c1)C(=O)C1CN(c2c3c(nc4ccnn24)CCNCC3)C1 ) is 20

EC50 recorded for this molecule, O=C(C1CN(c2c3c(nc4ccnn24)CCNCC3)C1)N1CCC(Oc2ccccc2)CC1 , is 40

# EC50 (molecule: CN1CCc2nc3ccnn3c(N3CC(C(=O)NCCCN4CC[C@@H](F)C4)C3)c2CC1 ) is 288

// CN(C)C(=O)C1CN(c2c3c(nc4ccnn24)CCNCC3)C1 : EC50 value = 71

* * *

- TARGET UNDER TEST: human 5-HT2C receptor (Homo sapiens, UniProt P28335, I156V/I160V/N158S)
- MEASUREMENT NOTES: cell-based
ASSAY METRIC: log10 of EC50 (log10 of the value in µM)
Parameter value (number): base-10 log of EC50 in µM.

Record summary for COc1cc(Cl)ccc1OC1CN(c2c3c(nc4ccnn24)CCNCC3)C1 [Example 35.21] : reported log10 of EC50 = -1.12

Entry FC(F)(F)c1cnc(OC2CN(c3c4c(nc5ccnn35)CCNCC4)C2)c(Cl)c1 [Example 20.7] , log10 of EC50 reported as -0.37

Form field log10 of EC50, entry CN(Cc1ccc(Cl)c(Cl)c1)C(=O)C1CCCN(c2c3c(nc4ccnn24)CCNCC3)C1 (centres unmarked) [Example 1.57] : 0.47

Entry under test: CCC#CCNC(=O)C1CN(c2c3c(nc4ccnn24)CCNCC3)C1 [Example 37.52] . Its log10 of EC50 was -1.21

In plain terms, Fc1ccc(OCC2CN(c3c4c(nc5ccnn35)CCNCC4)C2)cc1 [Example 15] has a documented log10 of EC50 of -1.37

So for CC(C)N1CCCN(C(=O)C2CN(c3c4c(nc5ccnn35)CCN(C)CC4)C2)CC1 [Example 36.49] , the logged log10 of EC50 turned out to be -1.11

log10 of EC50 recorded for this molecule, CC(C)(C)NC1CCN(C(=O)C2CN(c3c4c(nc5ccnn35)CCNCC4)C2)CC1 [Example 37.22] , is -2.70

Value of measured log10 of EC50 for the entry O=C(C1CN(c2c3c(nc4ccnn24)CCNCC3)C1)N1CCCCCC1 [Example 31.142] : -0.73
